experiment description: Pharmacokinetics in male CD1 mice
Format: in vivo
test context: mouse, plasma; IV, 5 mg/kg, male CD1 mice
value type: half-life (min)

compound="O=C(CCCOc1ccc(I)cc1)NN1CCCOC1=O [Y-31]" value_type=half-life unit_string=min numeric_value=7.8

* * *

experiment description: Pharmacokinetics in male CD1 mice
Format: in vivo
test context: mouse, plasma; PO, 20 mg/kg, male CD1 mice
value type: Tmax (min)

chemical_structure=O=C(CCCOc1ccc(I)cc1)NN1CCCOC1=O unit_string=min numeric_value=15

* * *

Tested on: C. violaceum CV026 QS
experiment description: Half-maximal inhibitory concentration against C. violaceum CV026 QS (suppression of violacein production)
Format: cell-based
test context: Chromobacterium violaceum; C6-HSL-induced violacein production, 12 h; mean ± SD of three independent tests; read-out: IC50, anti-CV026 QS activity
Measured IC50 accompanies every entry in the list below.
value type: IC50

chemical_structure=CCCCc1ccc(OCCCC(=O)NN2CCOC2=O)cc1 test_system="C. violaceum CV026 QS" value_type=IC50 result="> 260 µM"
chemical_structure=O=C(CCCCOc1ccc(Br)cc1)NN1CCCOC1=O test_system="C. violaceum CV026 QS" value_type=IC50 result="> 260 µM"
chemical_structure=CC(C)c1ccc(OCCCC(=O)NN2CCOC2=O)cc1 test_system="C. violaceum CV026 QS" value_type=IC50 result="> 260 µM"
